Hey, just so you know, these numbers are from the supplement of paper PMC9112550.

tested on: Escherichia coli TOP10; assay: shrunken log2 fold change of peptide-encoding DNA abundance (4.5 h post-induction vs induction); higher = less antimicrobial activity (less host growth inhibition); settings: time post-induction: 4.5 h; library: site-saturation at positions 5, 18, 19, 20;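 further: peptides expressed intracellularly from a pBAD plasmid library in pooled LB shake-flask culture, induced with 0.3% L-arabinose, DNA abundance read by NGS, three biological replicates, DESeq2 with apeglm shrinkage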
Measured shrunken log2 fold change values are reported for all entries that follow.
Give a plain numeric answer without units written out.

Known results for sequences:
# Residue Codes, Readout Number
data = [
    ("RRIRLRPPRLPRPRPRPREWPRP", -0.0315),
    ("RRIRMRPPRLPRPRPRPSSFPRP", -0.0557),
    ("RRIRHRPPRLPRPRPRPWASPRP", -0.0831),
    ("RRIRVRPPRLPRPRPRPLEDPRP", 0.144),
    ("RRIRERPPRLPRPRPRPNIMPRP", -0.444),
    ("RRIRYRPPRLPRPRPRPILRPRP", -0.172),
    ("RRIRMRPPRLPRPRPRPYRNPRP", -0.18),
    ("RRIRFRPPRLPRPRPRPWLEPRP", 0.0931),
]

Ask: Record lookup: for Escherichia coli TOP10, what shrunken log2 fold change belongs to RRIRFRPPRLPRPRPRPFQHPRP ?
Reply: -0.209

Ask: Record lookup: for Escherichia coli TOP10, what shrunken log2 fold change belongs to RRIRARPPRLPRPRPRPTQLPRP ?
Reply: 0.611

Ask: Record lookup: for Escherichia coli TOP10, what shrunken log2 fold change belongs to RRIRHRPPRLPRPRPRPVVMPRP ?
Reply: -0.245

Ask: Record lookup: for Escherichia coli TOP10, what shrunken log2 fold change belongs to RRIRSRPPRLPRPRPRPHCFPRP ?
Reply: 0.111

Ask: Record lookup: for Escherichia coli TOP10, what shrunken log2 fold change belongs to RRIRERPPRLPRPRPRPAPEPRP ?
Reply: 0.236
